Catalogue of pIC50 readings, one per entry.
Biological target: Interleukin-1 receptor-associated kinase 4 (Homo sapiens, UniProt Q9NWZ3)
Sequence (Q9NWZ3 whole entry): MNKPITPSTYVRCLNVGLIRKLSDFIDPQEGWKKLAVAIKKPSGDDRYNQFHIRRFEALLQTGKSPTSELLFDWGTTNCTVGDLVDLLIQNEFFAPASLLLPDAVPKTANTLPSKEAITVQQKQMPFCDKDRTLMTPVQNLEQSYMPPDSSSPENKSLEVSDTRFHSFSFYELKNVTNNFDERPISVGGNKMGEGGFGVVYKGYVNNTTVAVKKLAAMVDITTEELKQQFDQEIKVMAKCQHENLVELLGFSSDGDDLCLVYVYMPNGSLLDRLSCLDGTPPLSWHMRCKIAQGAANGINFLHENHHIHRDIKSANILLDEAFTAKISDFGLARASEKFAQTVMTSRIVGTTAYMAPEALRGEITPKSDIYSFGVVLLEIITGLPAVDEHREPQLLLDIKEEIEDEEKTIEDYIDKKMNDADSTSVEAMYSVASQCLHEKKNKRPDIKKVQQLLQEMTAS
pIC50: −log10 of the molar value.

- Structure Smiles String: "O=C(Nc1cnccc1-c1ccc(F)cc1)c1ccnc(Nc2ccc(F)cc2)n1"
  Recorded Measurement: "< 4.64"

Query molecule follows.
Query :: Fill in the blank: the reported pIC50 of `N#Cc1ccc(Nc2nccc(C(=O)Nc3cnccc3-c3ccc(F)cc3)n2)cc1` is ____.
Result :: < 4.30

====

experiment: Protein binding in rat plasma assessed as unbound fraction at 10 uM incubated for 5 hrs by equilibrium dialysis method; format: ADME, cell-free
Assay Endpoint: fraction unbound at 5 h, 10 µM

- Structure Smiles String: "N#Cc1ccc(Nc2nccc(C(=O)Nc3cnccc3-c3ccc(F)cc3)n2)cc1"
  fraction unbound at 5 h, 10 µM: 0.019

Query :: # query: fraction unbound at 5 h, 10 µM of entry `O=C(Nc1cnccc1-c1ccc(F)cc1)c1ccnc(Nc2ccc(Cl)cc2)n1`
Result :: 0.003

Query :: What measured fraction unbound at 5 h, 10 µM goes with `O=C(Nc1cnccc1-c1ccc(F)cc1)c1ccnc(Nc2ccc(OC(F)F)cc2)n1` ?
Result :: 0.004

Query :: Bench note: what fraction unbound at 5 h, 10 µM did `O=C(Nc1cnccc1-c1ccc(F)cc1)c1ccnc(Nc2ccc(F)cc2)n1` show?
Result :: 0.007

====

// values below are reported IC50
biological target: Glycogen synthase kinase-3 alpha (Homo sapiens, UniProt P49840); test: Displacement of FL-KRREILSRRP[ps]ERYR-NH2 from human recombinant full length GST-tagged GSK-3-alpha expressed in insect cells incubated for 20 hrs by fluorescence based analysis
Sequence (P49840 whole entry): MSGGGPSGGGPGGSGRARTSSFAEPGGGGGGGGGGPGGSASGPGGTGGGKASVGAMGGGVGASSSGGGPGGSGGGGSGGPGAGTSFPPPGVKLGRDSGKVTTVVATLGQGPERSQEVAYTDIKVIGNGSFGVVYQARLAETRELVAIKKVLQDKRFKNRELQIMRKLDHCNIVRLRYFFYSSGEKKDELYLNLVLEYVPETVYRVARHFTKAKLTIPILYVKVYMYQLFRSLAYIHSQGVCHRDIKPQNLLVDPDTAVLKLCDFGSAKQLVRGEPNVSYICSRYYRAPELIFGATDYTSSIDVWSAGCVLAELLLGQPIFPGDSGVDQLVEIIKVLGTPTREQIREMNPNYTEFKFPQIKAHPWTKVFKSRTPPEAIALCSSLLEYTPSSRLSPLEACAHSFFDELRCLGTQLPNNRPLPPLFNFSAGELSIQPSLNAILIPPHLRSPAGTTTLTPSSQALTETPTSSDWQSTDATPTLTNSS
Number only, in nM; omit the unit.

A selection of reference data follows.
- Structure Smiles String: "O=C(Nc1cnccc1-c1ccc(F)cc1)c1ccnc(Nc2ccc(OC(F)F)cc2)n1"
  Tested System: "Glycogen synthase kinase-3 alpha (Homo sapiens, UniProt P49840)"
  Recorded Measurement: 0.26
- Structure Smiles String: "O=C(Nc1cnccc1-c1ccc(F)cc1)c1ccnc(Nc2ccc(Cl)cc2)n1"
  Tested System: "Glycogen synthase kinase-3 alpha (Homo sapiens, UniProt P49840)"
  Recorded Measurement: 0.88
- Structure Smiles String: "O=C(Nc1cnccc1-c1ccccc1)c1ccnc(Nc2ccc(Cl)cc2)c1"
  Tested System: "Glycogen synthase kinase-3 alpha (Homo sapiens, UniProt P49840)"
  Recorded Measurement: 8.6

Query :: Given the compound `N#Cc1ccc(Nc2nccc(C(=O)Nc3cncnc3OCC(F)(F)F)n2)cc1` , what is its reported IC50?
Result :: 0.15

Query :: Record request: IC50 value, item `N#Cc1ccc(Nc2nccc(C(=O)Nc3cnccc3-c3ccc(F)cc3)n2)cc1`
Result :: 0.25

Query :: What does the record list as IC50 for `O=C(Nc1cnccc1N1CCC(F)(F)CC1)c1ccncn1` ?
Result :: 470

Query :: IC50 for `O=C(Nc1cnccc1-c1ccc(F)cc1)c1ccnc(Nc2ccc(F)cc2)n1` ?
Result :: 0.45

Query :: So what does the record say about IC50 for `O=C(Nc1cnccc1OCC(F)(F)F)c1ccnc(Nc2ccc(C(F)(F)F)cc2)c1` ?
Result :: 10

Query :: Looking for the measured IC50 of `O=C(Nc1cnccc1-c1ccccc1)c1ccnc(Nc2ccc(Cl)cc2)n1` , can you help?
Result :: 0.3

====

assay: Clearance in C57BL/6 mouse at 2 mg/kg, iv by LC-MS/MS analysis; type: ADME, organism-based; conditions: in vivo
Assay Endpoint: clearance (mL/min/kg)
Respond with the bare value in mL/min/kg.

Reference set, count: 2
- Structure Smiles String: "N#Cc1ccc(Nc2nccc(C(=O)Nc3cnccc3-c3ccc(F)cc3)n2)cc1"
  Scale Unit: "mL/min/kg"
  clearance: 23.3
- Structure Smiles String: "O=C(Nc1cnccc1-c1ccc(F)cc1)c1ccnc(Nc2ccc(Cl)cc2)n1"
  Scale Unit: "mL/min/kg"
  clearance: 15.8

Attention now shifts to the item below.
Query :: Requested read-out: clearance. Entry: `O=C(Nc1cnccc1-c1ccc(F)cc1)c1ccnc(Nc2ccc(F)cc2)n1`
Result :: 18.9

====

// reported pIC50 per item
biological target: Casein kinase II subunit alpha' (Homo sapiens, UniProt P19784); assay: Inhibition of CK2A2 (unknown origin)
Sequence (P19784 whole entry): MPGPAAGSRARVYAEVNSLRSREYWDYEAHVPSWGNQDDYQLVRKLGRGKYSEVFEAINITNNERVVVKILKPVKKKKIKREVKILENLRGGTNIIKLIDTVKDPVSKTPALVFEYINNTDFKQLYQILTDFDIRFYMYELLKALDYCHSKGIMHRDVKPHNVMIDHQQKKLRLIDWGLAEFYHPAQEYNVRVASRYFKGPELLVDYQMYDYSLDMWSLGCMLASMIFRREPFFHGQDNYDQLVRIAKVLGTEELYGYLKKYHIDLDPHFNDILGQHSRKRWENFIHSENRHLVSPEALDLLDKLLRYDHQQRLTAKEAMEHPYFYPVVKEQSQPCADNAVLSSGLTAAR
pIC50: −log10 of the molar value.

- Structure Smiles String: "N#Cc1ccc(Nc2nccc(C(=O)Nc3cnccc3-c3ccc(F)cc3)n2)cc1"
  Tested System: "Casein kinase II subunit alpha' (Homo sapiens, UniProt P19784)"
  Assay Endpoint: "pIC50"
  Recorded Measurement: "< 5.70"

# evaluate next
Query :: For Casein kinase II subunit alpha' (Homo sapiens, UniProt P19784), provide pIC50 of `O=C(Nc1cnccc1-c1ccc(F)cc1)c1ccnc(Nc2ccc(F)cc2)n1` please.
Result :: < 5.70

====

biological target: Glycogen synthase kinase-3 (Homo sapiens, UniProt P49840+P49841); assay: Inhibition of GSK-3 in human U2OS cells transfected with beta-catenin GFP and 4R1N tau plasmid assessed as inhibition of Tau phosphorylation at Ser396 residues by high-content imaging assay; format: cell-based
Assay Endpoint: IC50 (nM)
Please respond with the number in nM and leave the unit unwritten.

Please review the entries below; each comes with its answer.
- Structure Smiles String: "O=C(Nc1cnccc1-c1ccccc1)c1ccnc(Nc2ccncc2)n1"
  Scale Unit: "nM"
  IC50: 30
- Structure Smiles String: "O=C(Nc1cncnc1OCC(F)(F)F)c1ccnc(Nc2ccccc2)n1"
  Scale Unit: "nM"
  IC50: 77
- Structure Smiles String: "O=C(Nc1cnccc1-c1ccc(F)cc1)c1ccnc(Nc2ccc(F)cc2)n1"
  Scale Unit: "nM"
  IC50: 34
- Structure Smiles String: "O=C(Nc1cnccc1OCC(F)(F)F)c1ccnc(Nc2ccc(C(F)(F)F)cc2)n1"
  Scale Unit: "nM"
  IC50: 10
- Structure Smiles String: "COc1ccc(Nc2nccc(C(=O)Nc3cnccc3-c3ccccc3)n2)cc1"
  Scale Unit: "nM"
  IC50: 50

Query :: # query: IC50 of entry `O=C(Nc1cnccc1-c1ccc(F)cc1)c1ccnc(Nc2ccccc2)n1`
Result :: 35

Query :: Record request: IC50 value, item `Cc1cc(C#N)ccc1Nc1nccc(C(=O)Nc2cnccc2-c2ccccc2)n1`
Result :: 98

Query :: Can you look up the measured IC50 of `O=C(Nc1cnccc1N1CCC(F)(F)CC1)c1ccnc(Nc2ccccc2)n1` for me?
Result :: 8.5

Query :: What does the data say about its IC50? Entry: `CS(=O)(=O)c1ccc(Nc2nccc(C(=O)Nc3cnccc3-c3ccccc3)n2)cc1`
Result :: 10

Query :: So what's the measured IC50 for this one? `O=C(Nc1cnccc1-c1ccccc1)c1ccnc(Nc2ccccc2)n1`
Result :: 100

====

assay: Permeability of the compound from basolateral to apical side in human Caco-2 cells at 3 uM incubated for 2 hrs by LC-MS/MS analysis; assay type: ADME, cell-based; conditions: read-out: permeability
Assay Endpoint: Papp B→A at 2 h, 3 µM (×10⁻⁶ cm/s)
Numbers only; they are read as ×10⁻⁶ cm/s.

Known results for compounds:
- Structure Smiles String: "O=C(Nc1cnccc1-c1ccc(F)cc1)c1ccnc(Nc2ccc(OC(F)F)cc2)n1"
  Papp B→A at 2 h, 3 µM [×10⁻⁶ cm/s]: 3
- Structure Smiles String: "O=C(Nc1cnccc1-c1ccc(F)cc1)c1ccnc(Nc2ccc(Cl)cc2)n1"
  Papp B→A at 2 h, 3 µM [×10⁻⁶ cm/s]: 2.3
- Structure Smiles String: "N#Cc1ccc(Nc2nccc(C(=O)Nc3cnccc3-c3ccc(F)cc3)n2)cc1"
  Papp B→A at 2 h, 3 µM [×10⁻⁶ cm/s]: 9.8
- Structure Smiles String: "O=C(Nc1cnccc1-c1ccc(F)cc1)c1ccnc(Nc2ccc(F)cc2)n1"
  Papp B→A at 2 h, 3 µM [×10⁻⁶ cm/s]: 4.4

Let us move to another entry and its Papp B→A at 2 h, 3 µM.
Query :: Field request: Papp B→A at 2 h, 3 µM | item: `O=C(Nc1cnccc1-c1ccccc1)c1ccnc(Nc2ccc(Cl)cc2)n1`
Result :: 3
